Test system: TAK1
Construct: gene MAP3K7
Conditions: concentration: 1 μM, replicates: in singlicate; n = 1;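 further: KINOMEscan kinase panel screen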
Recorded %Inh, one value per entry.
# number only, unit % dropped from output

Guide cases for %Inh, answers given:
| Compound | %Inh (%) |
| --- | --- |
| Cc1cc(NCC(c2ccccc2)c2ccccc2)nc(NCc2ccc(C(F)(F)F)cc2)n1 | 0 |
| COc1cc2nccc(Nc3ccc(NC(=O)c4ccc(C)cc4)c(O)c3)c2cc1OC.Cl | 0 |
| Cc1csc(-c2nc(Nc3ccncc3)c3ccccc3n2)n1 | 25 |
| CC1=C(C(=O)Nc2cc3cn[nH]c3cc2F)C(c2ccc(C(F)(F)F)cc2)CC(=O)N1 (stereo not shown) | 0 |

Q: Test system TAK1; read-out %Inh; what value for CCCc1ccc(S(=O)(=O)NC2CCN(c3ccnc(Nc4ccc(F)cc4)n3)C2)cc1 (stereo not shown) ?
A: 0

Q: Same read-out for "Cc1ccccc1-n1cnc2c(N)ncnc21" ?
A: 0

Q: Same read-out for "CCn1c(-c2ccccn2)nc2cnccc21" ?
A: 0

Q: Same read-out for "Cl.O=C(Nc1cccc(-c2nn3ncccc3c2-c2ccnc(Nc3cccnc3)n2)c1)c1c(F)cccc1F" ?
A: 0

Q: Same read-out for "O=S(=O)(c1ccc(-c2ccnc3[nH]ccc23)cc1)N1CCCC1" ?
A: 1

###

Tested on: MEK2
Construct: gene MAP2K2
Conditions: concentration: 1 μM, replicates: in singlicate; n = 1
Recorded %Inh, one value per entry.
# number only, unit % dropped from output

| Molecule | Readout Label | Reading Unit | Measured Result |
| --- | --- | --- | --- |
| Cn1ccc2ncnc(Oc3ccc(NC(=O)Nc4ccccc4)cc3)c21 | %Inh | % | 20 |

Q: Consider the molecule "Cc1c(Cn2ccn3c(=O)cc(N4CCOCC4)nc23)cccc1C(F)(F)F" and give its measured %Inh.
A: 0

Q: Same read-out for "Cc1ccc(C(=O)Nc2ccc(Nc3ccnc4cc(-c5ccccn5)ccc34)cc2O)cc1.Cl" ?
A: 0

Q: Same read-out for "COc1ccc(Nc2nccc(-c3cccc(NC(=O)c4cc5cc(F)ccc5[nH]4)c3)n2)cc1" ?
A: 0

Q: Same read-out for "Cc1ccc(-c2cc(-c3c[nH]nc3-c3ccccn3)ccn2)cc1" ?
A: 0

Q: Same read-out for "Cc1cccc(-c2nc(Nc3ccncc3)c3ccccc3n2)n1" ?
A: 25

Q: Same read-out for "CC(C)(C)c1ccc(C(=O)Nc2cn3cc(Cl)ccc3n2)cc1" ?
A: 24

Q: Same read-out for "COC(=O)c1c(-c2ccccc2)c2cc(OC)ccc2c(=O)n1Cc1ccccc1" ?
A: 0

###

Test system: LIMK1
Conditions: concentration: 1 μM, replicates: in singlicate; n = 1
Recorded %Inh, one value per entry.
# number only, unit % dropped from output

Guide cases for %Inh, answers given:
| Compound | Readout Label | Measured Result |
| --- | --- | --- |
| COc1ccccc1CNC(=O)c1cc(C(=O)c2ccccc2C)c[nH]1 [GSK364507] | %Inh | 8 |
| Fc1cc(Cl)ccc1Nc1ccnc2cc(-c3ccc(CN4CCCCC4)o3)ccc12 [GW560116] | %Inh | 0 |
| Cc1c(O)cccc1Nc1ccnc2ccc(C(F)(F)F)cc12.Cl [GW466413] | %Inh | 0 |
| Fc1cccc(COc2nnc(-c3ccc4c(c3)CCO4)o2)c1 | %Inh | 0 |
| CS(=O)(=O)c1ccc(-c2c(-c3ncn[nH]3)sc(N3CCOCC3)c2C#N)cc1 | %Inh | 0 |
| Cc1cc(-c2ccc3c(c2)CC[C@@H](N[C@@H](C)c2ccccc2)C3)cnc1N.Cl [GW412617] | %Inh | 0 |
| O=C1NC(=O)C(N2CCc3ccccc32)=C1c1ccccc1Cl [SB-373598] | %Inh | 21 |
| Cc1ccc(C(=O)Nc2ccc(Nc3ccnc4cc(-c5ccccn5)ccc34)cc2O)cc1.Cl [GW440146] | %Inh | 0 |
| Cc1nnc(-c2ccc3occ(-c4ccc(S(C)=O)cc4)c3c2)[nH]1 (stereo not drawn) | %Inh | 0 |
| COc1cc2ncnc(Nc3ccc4nc(-c5ccccc5)[nH]c4c3)c2cc1OC.Cl [GW282450] | %Inh | 0 |

Turning now to a further compound:
Q: Test system LIMK1; read-out %Inh; what value for "CC(C)(C)c1ccc(C(=O)Nc2cn3cc(-c4cccnc4)ccc3n2)cc1" ?
A: 16

The origin of these recorded values is paper PMC5540273.
